Biological target: Histone deacetylase 8 (Homo sapiens, UniProt Q9BY41)
Sequence (Q9BY41 whole entry): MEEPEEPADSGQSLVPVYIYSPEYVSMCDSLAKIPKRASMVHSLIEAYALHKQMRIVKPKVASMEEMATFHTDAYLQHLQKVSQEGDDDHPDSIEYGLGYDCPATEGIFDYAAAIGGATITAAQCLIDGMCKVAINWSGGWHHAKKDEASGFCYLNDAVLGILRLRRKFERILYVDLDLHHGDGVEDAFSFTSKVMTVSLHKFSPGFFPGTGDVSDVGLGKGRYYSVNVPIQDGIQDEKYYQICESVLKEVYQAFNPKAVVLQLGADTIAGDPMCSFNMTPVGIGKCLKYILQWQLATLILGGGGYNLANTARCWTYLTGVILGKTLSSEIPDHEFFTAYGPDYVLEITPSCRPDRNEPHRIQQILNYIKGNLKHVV
Assay: Inhibition of human recombinant HDAC8
Measured endpoint: IC50 (nM)
Answer format: numeric, nM implied, no suffix.

[[record]]
cpd_smiles = "Cc1nc(-c2cccc(/C=C/C(=O)NO)c2)n([C@@H]2CCCN(C)C2)c1-c1ccccc1"
unit_text = "nM"
value_measured = 100

[[record]]
cpd_smiles = "COc1ccc(-n2c(-c3cccc(/C=C/C(=O)NO)c3)nc3ccccc32)cc1"
unit_text = "nM"
value_measured = 63


Tell me IC50 reported for "O=C(/C=C/c1cccc(-c2nc3ccccc3[nH]2)c1)NO"
63

====

Quick reference: IC50 of the listed items.
Target: Protein deacetylase HDAC6 (Homo sapiens, UniProt Q9UBN7)
Sequence (Q9UBN7 whole entry): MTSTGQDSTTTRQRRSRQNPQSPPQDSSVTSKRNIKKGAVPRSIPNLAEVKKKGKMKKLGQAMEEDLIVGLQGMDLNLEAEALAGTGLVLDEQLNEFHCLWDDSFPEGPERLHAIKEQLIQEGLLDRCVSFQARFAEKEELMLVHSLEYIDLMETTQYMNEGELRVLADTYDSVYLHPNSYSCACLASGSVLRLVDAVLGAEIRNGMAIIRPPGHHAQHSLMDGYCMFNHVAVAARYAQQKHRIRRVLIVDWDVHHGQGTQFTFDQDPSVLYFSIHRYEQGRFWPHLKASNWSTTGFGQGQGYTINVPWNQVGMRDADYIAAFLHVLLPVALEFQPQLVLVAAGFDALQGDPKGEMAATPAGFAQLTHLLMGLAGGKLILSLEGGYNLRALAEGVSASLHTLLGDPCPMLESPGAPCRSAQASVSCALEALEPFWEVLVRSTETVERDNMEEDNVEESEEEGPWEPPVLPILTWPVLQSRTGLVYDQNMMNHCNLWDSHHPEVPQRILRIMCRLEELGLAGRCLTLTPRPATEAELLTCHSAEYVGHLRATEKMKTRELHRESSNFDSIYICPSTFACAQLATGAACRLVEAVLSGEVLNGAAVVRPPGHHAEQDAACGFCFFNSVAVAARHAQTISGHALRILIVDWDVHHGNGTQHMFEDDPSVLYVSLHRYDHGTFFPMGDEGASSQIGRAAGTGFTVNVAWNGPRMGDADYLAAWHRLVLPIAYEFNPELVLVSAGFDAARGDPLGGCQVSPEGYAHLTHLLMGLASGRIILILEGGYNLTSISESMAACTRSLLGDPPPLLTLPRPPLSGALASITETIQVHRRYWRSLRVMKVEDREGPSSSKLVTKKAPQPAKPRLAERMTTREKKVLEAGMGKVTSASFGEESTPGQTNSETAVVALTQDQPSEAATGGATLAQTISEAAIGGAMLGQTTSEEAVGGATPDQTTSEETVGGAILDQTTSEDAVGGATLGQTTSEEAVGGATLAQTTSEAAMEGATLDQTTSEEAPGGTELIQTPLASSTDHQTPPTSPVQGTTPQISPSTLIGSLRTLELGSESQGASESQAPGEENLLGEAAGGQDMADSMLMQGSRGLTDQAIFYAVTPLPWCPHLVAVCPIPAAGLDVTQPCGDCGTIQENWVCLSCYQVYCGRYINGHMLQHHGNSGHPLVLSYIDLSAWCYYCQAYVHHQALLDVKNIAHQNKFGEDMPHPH
Experiment: Inhibition of human recombinant HDAC6
Provide the measurement as a number trailed by its unit.

[[record]]
molecule = "Cc1c(Cc2ccccc2)nc(-c2cccc(/C=C/C(=O)NO)c2)n1CCN1CCOCC1"
system_name = "Protein deacetylase HDAC6 (Homo sapiens, UniProt Q9UBN7)"
value_measured = "79 nM"

[[record]]
molecule = "CCN1CCC[C@@H](n2c(-c3ccccc3)nc(C)c2-c2cccc(/C=C/C(=O)NO)c2)C1"
system_name = "Protein deacetylase HDAC6 (Homo sapiens, UniProt Q9UBN7)"
value_measured = "630 nM"

[[record]]
molecule = "Cc1nc(Cc2ccccc2)n(CCc2ccccc2)c1-c1cccc(/C=C/C(=O)NO)c1"
system_name = "Protein deacetylase HDAC6 (Homo sapiens, UniProt Q9UBN7)"
value_measured = "63 nM"

[[record]]
molecule = "Cc1nc(-c2cccc(/C=C/C(=O)NO)c2)n(CCc2ccccc2)c1Cc1ccccc1"
system_name = "Protein deacetylase HDAC6 (Homo sapiens, UniProt Q9UBN7)"
value_measured = "50 nM"

[[record]]
molecule = "O=C(/C=C/c1cccc(-c2nc3ccccc3n2C2CCCNC2)c1)NO (racemic)"
system_name = "Protein deacetylase HDAC6 (Homo sapiens, UniProt Q9UBN7)"
value_measured = "40 nM"

[[record]]
molecule = "COc1ccc(-n2c(-c3cccc(/C=C/C(=O)NO)c3)nc3ccccc32)cc1"
system_name = "Protein deacetylase HDAC6 (Homo sapiens, UniProt Q9UBN7)"
value_measured = "63 nM"

[[record]]
molecule = "O=C(/C=C/c1cccc(-c2nc3ccccc3n2[C@@H]2CCCNC2)c1)NO"
system_name = "Protein deacetylase HDAC6 (Homo sapiens, UniProt Q9UBN7)"
value_measured = "79 nM"

[[record]]
molecule = "CCN1CCCC(n2c(-c3cccc(/C=C/C(=O)NO)c3)nc3ccccc32)C1 (racemic)"
system_name = "Protein deacetylase HDAC6 (Homo sapiens, UniProt Q9UBN7)"
value_measured = "79 nM"


Here is the next item to consider.
Consider the molecule "O=C(/C=C/c1cccc(-c2nc3ccccc3n2CCN2CCOCC2)c1)NO" . State its measured IC50.
160 nM

Data provenance is ChEMBL document CHEMBL1158589.
